Source listed as paper PMC9681820.

assay: MTT cytotoxicity assay; assay type: cell-based; details: human, HepG2 cells, HepG2, 72 h, n = 3
value kind: IC50 at 72 h

Measured IC50 at 72 h, `Cc1ncc(C)n2nc(-c3ccn4cc(-c5ccccc5)nc4n3)nc12` : > 60 µM

====

experiment: Plasma protein binding (equilibrium dialysis); assay type: in vitro ADME, rats; conditions: rat, plasma, pH 7.4; rats; 10 μM, 37°C, 4 h, n = 2
value kind: fraction unbound at 4 h, 10 µM
Give your answer as a number; write no unit.

// recorded fraction unbound at 4 h, 10 µM for Cc1ncc(C)n2nc(-c3ccn4cc(-c5ccccc5)nc4n3)nc12 [CPL500036] : 0.08

====

experiment: Pharmacokinetics after oral gavage in rats (plasma and brain); type: in vivo, Wistar Han rats; details: male, Wistar Han; rat plasma, 3 mg/kg oral gavage, mean ± SD
value kind: half-life

Entry `Cc1ncc(C)n2nc(-c3ccn4cc(-c5ccccc5)nc4n3)nc12` , half-life reported as 384 min

====

test: Pharmacokinetics after oral gavage in rats (plasma and brain); type: in vivo, Wistar Han rats; conditions: male, Wistar Han; rat plasma, 3 mg/kg oral gavage, mean ± SD
value kind: Tmax (h)
Your answer should be a plain number; it is taken to be in h.

Field Tmax (entry `Cc1ncc(C)n2nc(-c3ccn4cc(-c5ccccc5)nc4n3)nc12` ) reads 5.8

====

test: Pharmacokinetics after oral gavage in dogs (plasma); format: in vivo; conditions: both sexes, Beagle; dog plasma, 1.5 mg/kg oral gavage, mean ± SD, n = 4
value kind: Cmax (ng/mL)
Give a bare numeral; the unit ng/mL is implied.

Summary for this molecule, `Cc1ncc(C)n2nc(-c3ccn4cc(-c5ccccc5)nc4n3)nc12` : Cmax is 98.3

====

assay: MTT cytotoxicity assay; type: cell-based; conditions: human, SH-SY5Y cells, n = 3
value kind: IC50 at 72 h

`Cc1ncc(C)n2nc(-c3ccn4cc(-c5ccccc5)nc4n3)nc12` yielded IC50 at 72 h of > 60 µM

====

assay: Pharmacokinetics after oral gavage in rats (plasma and brain); type: in vivo, Wistar Han rats; conditions: male, Wistar Han; rat plasma, 3 mg/kg oral gavage, mean ± SD
value kind: Cmax
Quick note: number first, unit second.

Entry Cc1ncc(C)n2nc(-c3ccn4cc(-c5ccccc5)nc4n3)nc12 [CPL500036] ; Cmax = 238 ng/mL

====

target: potassium voltage-gated channel subfamily H member 2 (hERG) (Homo sapiens); construct: purchased Eurofins Cerep (SafetyScreen44); experiment: SafetyScreen44 radioligand binding; conditions: read-out: % Inh (% inhibition of control specific binding)
Sequence (Q12809 whole entry): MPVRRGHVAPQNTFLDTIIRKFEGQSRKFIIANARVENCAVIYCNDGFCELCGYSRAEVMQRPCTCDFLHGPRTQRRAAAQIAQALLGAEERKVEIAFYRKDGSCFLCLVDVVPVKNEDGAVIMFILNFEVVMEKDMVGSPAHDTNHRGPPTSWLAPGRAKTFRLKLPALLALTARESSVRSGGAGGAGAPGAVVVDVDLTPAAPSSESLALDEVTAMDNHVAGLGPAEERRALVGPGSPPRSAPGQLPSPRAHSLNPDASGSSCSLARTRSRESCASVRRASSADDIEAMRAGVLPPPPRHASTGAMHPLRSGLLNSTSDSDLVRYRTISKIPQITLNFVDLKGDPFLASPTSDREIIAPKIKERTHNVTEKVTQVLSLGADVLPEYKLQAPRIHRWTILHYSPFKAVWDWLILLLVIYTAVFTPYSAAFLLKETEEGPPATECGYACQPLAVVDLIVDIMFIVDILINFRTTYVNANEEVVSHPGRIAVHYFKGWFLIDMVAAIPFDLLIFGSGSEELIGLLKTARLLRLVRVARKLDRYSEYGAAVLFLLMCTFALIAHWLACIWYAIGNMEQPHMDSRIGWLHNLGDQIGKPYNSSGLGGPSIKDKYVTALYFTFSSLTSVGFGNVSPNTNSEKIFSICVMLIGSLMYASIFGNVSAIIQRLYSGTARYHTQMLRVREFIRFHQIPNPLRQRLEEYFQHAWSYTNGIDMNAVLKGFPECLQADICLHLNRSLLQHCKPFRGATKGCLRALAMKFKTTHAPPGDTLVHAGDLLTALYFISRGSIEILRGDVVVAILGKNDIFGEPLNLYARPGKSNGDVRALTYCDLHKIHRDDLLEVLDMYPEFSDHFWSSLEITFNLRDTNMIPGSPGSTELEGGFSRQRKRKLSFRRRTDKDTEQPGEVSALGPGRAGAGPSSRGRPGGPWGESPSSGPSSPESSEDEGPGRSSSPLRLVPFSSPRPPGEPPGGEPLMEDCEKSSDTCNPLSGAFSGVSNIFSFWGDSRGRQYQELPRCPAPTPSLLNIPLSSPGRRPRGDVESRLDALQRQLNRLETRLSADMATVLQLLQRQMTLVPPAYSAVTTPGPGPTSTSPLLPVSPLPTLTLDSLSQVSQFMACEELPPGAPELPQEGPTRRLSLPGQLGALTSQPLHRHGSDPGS
value kind: inhibition at 1 µM (%)
Entry rule: numbers only, all in %.

What the record says about `Cc1ncc(C)n2nc(-c3ccn4cc(-c5ccccc5)nc4n3)nc12` : inhibition at 1 µM is -19.6

====

experiment: MTT cytotoxicity assay; format: cell-based; conditions: human, NCI-H1299 cells, H1299, 72 h, n = 3
value kind: IC50 at 72 h

Memo: `Cc1ncc(C)n2nc(-c3ccn4cc(-c5ccccc5)nc4n3)nc12` , reported IC50 at 72 h: > 60 µM
